Where do these numbers come from? They come from PubChem BioAssay (NCI).

Test system: MALME-3M melanoma
ASSAY: NCI-60 one-dose screen, 48 h (100 = growth as untreated, 0 = no growth, -100 = all killed)
APPLIED_CONDITIONS: 10 µM unless noted
The panel holds about 83,000 compounds, 20% with a hit somewhere; the sample as a whole holds those more often.
Could you mark each record satisfied if its growth falls strictly under 60%, and not satisfied if it equals or exceeds it?

>  <SMILES_REPR>
O=S(=O)(Nc1cc(Cl)ccc1Cl)c1ccc(-c2cnc(C3CC3)o2)cc1

>  <SYSTEM>
MALME-3M melanoma

>  <CATEGORY_LABEL>
satisfied

$$$$
>  <SMILES_REPR>
COc1cc2cc(NCc3cccc(Cl)c3)nc(C)c2cc1OC

>  <SYSTEM>
MALME-3M melanoma

>  <CATEGORY_LABEL>
not satisfied

$$$$
>  <SMILES_REPR>
N=C(N)c1ccc(-c2ccc(-c3ccccc3)o2)cc1

>  <SYSTEM>
MALME-3M melanoma

>  <CATEGORY_LABEL>
satisfied

$$$$
>  <SMILES_REPR>
O=C(N/N=C/c1ccc(Cl)cc1)c1[nH]c2ccc(Cl)cc2c1-c1ccccc1

>  <SYSTEM>
MALME-3M melanoma

>  <CATEGORY_LABEL>
not satisfied

$$$$
>  <SMILES_REPR>
[O-]/[N+](=C\c1ccc(-n2cc(Cc3ccccc3Cc3cn(-c4ccc(/C=[N+](/[O-])c5ccccc5)cc4)nn3)nn2)cc1)c1ccccc1

>  <SYSTEM>
MALME-3M melanoma

>  <CATEGORY_LABEL>
not satisfied

$$$$
